target: Kinesin-like protein KIF18A (Homo sapiens, UniProt Q8NI77); experiment: Inhibition of recombinant His-tagged human KIF18A (1 to 467 residues) expressed in baculovirus expression system assessed as inhibition of microtubule-stimulated ATPase activity preincubated for 15 mins followed by ATP addition and further incubated for 15 mins and measured after 40 mins by ADP-Glo reagent based assay
Sequence (Q8NI77 whole entry, the tested form may be a part): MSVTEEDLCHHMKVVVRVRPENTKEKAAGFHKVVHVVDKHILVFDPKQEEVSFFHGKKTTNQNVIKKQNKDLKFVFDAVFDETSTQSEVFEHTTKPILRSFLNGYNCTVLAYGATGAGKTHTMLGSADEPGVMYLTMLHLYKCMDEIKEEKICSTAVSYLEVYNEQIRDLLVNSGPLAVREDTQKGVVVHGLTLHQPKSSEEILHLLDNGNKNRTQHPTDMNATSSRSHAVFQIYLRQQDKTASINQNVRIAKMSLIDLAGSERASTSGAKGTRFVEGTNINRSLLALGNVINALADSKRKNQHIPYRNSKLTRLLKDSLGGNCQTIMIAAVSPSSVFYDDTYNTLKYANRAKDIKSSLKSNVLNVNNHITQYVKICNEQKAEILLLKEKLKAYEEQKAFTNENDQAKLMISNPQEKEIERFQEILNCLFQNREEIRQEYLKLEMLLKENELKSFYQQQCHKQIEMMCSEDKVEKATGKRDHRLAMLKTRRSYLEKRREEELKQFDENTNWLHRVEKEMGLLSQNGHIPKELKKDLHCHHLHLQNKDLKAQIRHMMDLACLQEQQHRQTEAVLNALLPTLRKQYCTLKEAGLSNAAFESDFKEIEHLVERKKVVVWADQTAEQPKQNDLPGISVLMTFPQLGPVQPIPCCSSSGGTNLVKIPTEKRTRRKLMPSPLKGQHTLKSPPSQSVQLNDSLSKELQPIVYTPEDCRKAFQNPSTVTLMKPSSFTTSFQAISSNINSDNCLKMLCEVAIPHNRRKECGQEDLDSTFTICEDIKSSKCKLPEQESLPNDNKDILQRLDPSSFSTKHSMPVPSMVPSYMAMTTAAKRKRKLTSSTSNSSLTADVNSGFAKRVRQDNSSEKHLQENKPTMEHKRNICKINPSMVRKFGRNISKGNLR
Measurement Label: IC50 (nM)

Smiles Notation | Experimental System | Units | Observed Result
Cc1cc(NC(=O)c2cnc(S(=O)(=O)C3CC3)cc2N2CCC3(CC2)CC3)nc(N2CCC(F)(F)CC2)n1 | Kinesin-like protein KIF18A (Homo sapiens, UniProt Q8NI77) | nM | 48
